# Assayed target: T1, EphA2 SAM domain R950E (human, UniProt P29317 897-976, R950E)
# T1 sequence (looked up): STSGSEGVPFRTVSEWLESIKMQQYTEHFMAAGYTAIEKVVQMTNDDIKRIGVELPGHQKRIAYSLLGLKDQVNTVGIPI
# Assay comment: ITC
List of pKd values.
// pKd here means minus log10 of the molar concentration (mol/L)

Use the examples below as a reference point.
SHIP2 SAM domain H1219R (domain or fragment, human, UniProt O15357 1192-1258, looked up) RASGLGEAGMSAWLRAIGLERYEEGLVRNGWDDLEFLSDITEEDLEEAGVQDPAHKRLLLDTLQLSK
5.89
SHIP2 SAM domain (wild type) (domain or fragment, human, UniProt O15357 1192-1258, looked up) RASGLGEAGMSAWLRAIGLERYEEGLVHNGWDDLEFLSDITEEDLEEAGVQDPAHKRLLLDTLQLSK
5.77

Now, please, on to the next binder.
QUERY: What does the data say about its pKd? Entry: SHIP2 SAM domain H1219E (domain or fragment, human, UniProt O15357 1192-1258, looked up) RASGLGEAGMSAWLRAIGLERYEEGLVENGWDDLEFLSDITEEDLEEAGVQDPAHKRLLLDTLQLSK
RESULT: 4.95
